# ASSAYED_SYSTEM: human CB2 (Homo sapiens, UniProt P34972)
# Sequence (P34972 whole entry): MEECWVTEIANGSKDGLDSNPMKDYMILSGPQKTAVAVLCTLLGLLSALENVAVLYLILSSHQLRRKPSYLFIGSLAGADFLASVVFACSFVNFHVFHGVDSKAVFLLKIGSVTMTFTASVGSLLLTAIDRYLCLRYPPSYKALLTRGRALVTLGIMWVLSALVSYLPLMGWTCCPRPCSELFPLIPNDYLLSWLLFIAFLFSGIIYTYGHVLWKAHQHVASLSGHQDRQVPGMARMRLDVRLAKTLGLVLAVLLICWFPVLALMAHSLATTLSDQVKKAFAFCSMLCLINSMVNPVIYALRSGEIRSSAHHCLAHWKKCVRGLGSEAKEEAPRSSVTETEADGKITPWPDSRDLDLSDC
# PROCEDURE_SUMMARY: 35S GTPγS binding functional assay, agonist mode, hCB2 HEK-293 membranes
# Type: biochemical
# TEST_SETTINGS: GTPγS agonist mode, HEK-293 membranes; read-out: hCB2 EC50 (GTPyS ag, nM, HEK)
MEASURED_PROPERTY: EC50

[Q] Recall the recorded EC50 for CCCn1c(C)c(C(=O)c2cccc(Cl)c2Cl)c2scnc21 [Compound I-4] with human CB2 (Homo sapiens, UniProt P34972) and state it.
[A] < 100 nM

[Q] Test system human CB2 (Homo sapiens, UniProt P34972); read-out EC50; what value for CCCn1c(C)c(C(=O)c2cccc(Cl)c2Cl)c2ccsc21 [Compound I-2] ?
[A] < 100 nM

[Q] For human CB2 (Homo sapiens, UniProt P34972), provide EC50 of Cc1c(C(=O)c2cccc(Cl)c2Cl)c2sccc2n1CCN1CCOCC1 [Compound I-5] please.
[A] < 100 nM

[Q] Short answer please: EC50, human CB2 (Homo sapiens, UniProt P34972), entry Cc1c(C(=O)c2cccc(Cl)c2Cl)c2scnc2n1CCN1CCOCC1 [Compound I-3]
[A] < 100 nM

[Q] Checklist item: EC50 tested on human CB2 (Homo sapiens, UniProt P34972), entry Cc1c(C(=O)c2cccc(Cl)c2Cl)c2ccsc2n1CC1CCCCN1C (stereo not drawn) [Compound I-20] , value?
[A] < 100 nM

[Q] Return EC50 measured with human CB2 (Homo sapiens, UniProt P34972) given this compound: Cc1c(C(=O)c2cccc3c2OCC3)c2ccsc2n1CCN1CCOCC1 [Compound I-14]
[A] 100 to 1000 nM
